Test: Therapeutic index, ratio of CC50 for human C8166 cells to EC50 for Human immunodeficiency virus 1 3B infected in human C8166 cells
Assay type: cell-based
Settings: read-out: Ratio CC50/EC50
So I've got a bunch of compounds here, and I need their selectivity ratio values.
Quick one: just the number, no unit, thanks!

So for "CC(C)[C@H]1CC[C@@]2(C)[C@@H]1[C@H]1O[C@@H]2CC[C@@H]1C(=O)O" , the logged selectivity ratio turned out to be 1.2

So for "C=C1CC[C@H]2[C@@H]([C@@H]3[C@@H]1CC[C@@]3(C)O)C2(C)C" , the logged selectivity ratio turned out to be 1.6

So for "Cc1cn([C@H]2C[C@H](N=[N+]=[N-])[C@@H](CO)O2)c(=O)[nH]c1=O" , the logged selectivity ratio turned out to be 214000

Where do the numbers come from? From ChEMBL document CHEMBL1811918.
